meta.source: patent US12509460B2

- Test system: MDR1 (P-gp)
- Protocol text: Blood-brain-barrier (BBB) penetration potential via MDCK-MDR1 permeability assay
- Assay conditions: dog, MDCK-MDR1, pH 7.4, MDCK-MDR1: Papp B-A, B-A direction
Quick rule for you: Papp B→A at 120 min, 5 μM at 40 ×10⁻⁶ cm/s or higher means Satisfied, lower means Not satisfied.

[[record]]
compound = "CN(c1ccc(-c2ccc(-c3cnn(C)c3)cc2O)nn1)[C@H]1C[C@H]2CC(F)(F)[C@H](C1)N2 (single isomer, unassigned)"
class_label = "Not satisfied"


IN: # bool: Papp B→A at 120 min, 5 μM of CN(c1ccc(-c2ccc(-c3cnn(C)c3)cc2O)nn1)[C@@H]1C[C@H]2CCC[C@H](N2)[C@H]1F [Compound 14A] >= 40 ×10⁻⁶ cm/s
OUT: Satisfied

IN: # bool: Papp B→A at 120 min, 5 μM of Cc1cc(=O)c2cc(-c3ccc(N(C)[C@@H]4C[C@H]5CC[C@H](N5)[C@@H]4F)nn3)c(O)cc2o1 [Compound 50A] >= 40 ×10⁻⁶ cm/s
OUT: Satisfied

IN: # bool: Papp B→A at 120 min, 5 μM of CN(C)C(=O)c1cc2cc(O)c(-c3ccc(N(C4CC4)[C@H]4C[C@@H]5CC[C@@H](N5)[C@H]4F)nn3)cc2o1 [Compound 86B] >= 40 ×10⁻⁶ cm/s
OUT: Satisfied

IN: # bool: Papp B→A at 120 min, 5 μM of CN(c1ccc(-c2ccc(-c3cnn(C)c3)cc2O)nn1)[C@@H]1C[C@H]2CCC[C@H](N2)[C@@H]1F [Compound 15A] >= 40 ×10⁻⁶ cm/s
OUT: Not satisfied

IN: # bool: Papp B→A at 120 min, 5 μM of CN(c1ccc(-c2cc3ccncc3cc2O)nn1)[C@H]1C[C@@H]2CC[C@@H](N2)[C@H]1F (single isomer, unassigned) [Compound 87B] >= 40 ×10⁻⁶ cm/s
OUT: Not satisfied

====

Collected Papp B→A at 120 min, 5 μM values appear next to each entry.
- Test system: MDR1 (P-gp)
- Protocol text: Blood-brain-barrier (BBB) penetration potential via MDCK-MDR1 permeability assay
- Assay conditions: dog, MDCK-MDR1, pH 7.4, MDCK-MDR1: Papp B-A, B-A
All answers are understood in nm/s, so give the number only.

[[record]]
compound = "Cc1nc2cc(O)c(-c3ccc(N(C)[C@H]4C[C@@H]5CC[C@@H](N5)[C@H]4F)nn3)cc2o1 [Compound 117B]"
measurement_kind = "Papp B→A at 120 min, 5 μM"
measure_unit = "nm/s"
value = 450

[[record]]
compound = "CN(c1ccc(-c2cc(F)c(-n3ccnn3)cc2O)nn1)[C@H]1C[C@@H]2CC[C@H]([C@H]1F)N2C [Compound 103B]"
measurement_kind = "Papp B→A at 120 min, 5 μM"
measure_unit = "nm/s"
value = 491

[[record]]
compound = "CN(c1ccc(-c2cc3ncn(C)c(=O)c3cc2O)nn1)[C@@H]1C[C@H]2CC[C@@H]([C@@H]1F)N2C [Compound 101A]"
measurement_kind = "Papp B→A at 120 min, 5 μM"
measure_unit = "nm/s"
value = 726


IN: Answer with Papp B→A at 120 min, 5 μM of CN(c1ccc(-c2cc3oc(C(=O)N4CCC4)cc3cc2O)nn1)[C@H]1C[C@@H]2CC[C@H]([C@H]1F)N2C [Compound 107B] measured for MDR1 (P-gp).
OUT: 463

IN: Answer with Papp B→A at 120 min, 5 μM of CN(c1ccc(-c2cc3c(=O)n(C)ccc3cc2O)nn1)[C@@H]1C[C@H]2CC[C@@H]([C@@H]1F)N2C [Compound 98A] measured for MDR1 (P-gp).
OUT: 647

====

Collected MDCK-MDR1: % Recov B-A values appear next to each entry.
- Test system: MDR1-MDCK cell monolayers
- Assay conditions: dog, MDCK-MDR1, 120 min, 5 μM, pH 7.4
All answers are understood in %, so give the number only.

[[record]]
compound = "CNC(=O)c1ccc(-c2ccc(N(C)[C@@H]3C[C@H]4CC[C@H](N4)[C@@H]3F)nn2)c(O)c1 (single isomer, unassigned) [Compound 77A]"
measurement_kind = "MDCK-MDR1: % Recov B-A"
value = 110

[[record]]
compound = "CNC(=O)c1cc(O)c(-c2ccc(N(C)[C@H]3C[C@@H]4CC[C@H]([C@H]3F)N4C)nn2)cc1F (single isomer, unassigned) [Compound 96B]"
measurement_kind = "MDCK-MDR1: % Recov B-A"
value = 98

[[record]]
compound = "O=C(c1cc2cc(O)c(-c3ccc(N(C4CC4)[C@@H]4C[C@H]5CC[C@H](N5)[C@@H]4F)nn3)cc2o1)N1CCC1 [Compound 57A]"
measurement_kind = "MDCK-MDR1: % Recov B-A"
value = 104


IN: Give MDCK-MDR1: % Recov B-A for CN(c1ccc(-c2ccc(C3CC3)cc2O)nn1)[C@@H]1C[C@H]2CC[C@H](N2)[C@@H]1F (single isomer, unassigned) [Compound 31A]
OUT: 66

IN: Give MDCK-MDR1: % Recov B-A for O=c1c2cc(O)c(-c3ccc(N(C4CC4)[C@H]4C[C@@H]5CC[C@@H](N5)[C@H]4F)nn3)cc2ncn1CC(F)(F)F (single isomer, unassigned) [Compound 60B]
OUT: 92

IN: Give MDCK-MDR1: % Recov B-A for CN(c1ccc(-c2ccc(C3CC3)cc2O)nn1)[C@H]1C[C@@H]2CC[C@@H](N2)[C@H]1F (single isomer, unassigned) [Compound 31B]
OUT: 74

IN: Give MDCK-MDR1: % Recov B-A for CN(c1ccc(-c2cc(F)c(-n3ccnn3)cc2O)nn1)[C@@H]1C[C@H]2CC[C@@H]([C@@H]1F)N2C [Compound 103A]
OUT: 91

IN: Give MDCK-MDR1: % Recov B-A for CN(c1ccc(-c2cn3c(=O)ccnc3cc2O)nn1)[C@@H]1C[C@H]2CC[C@@H]([C@@H]1F)N2C (single isomer, unassigned) [Compound 95A]
OUT: 115

IN: Give MDCK-MDR1: % Recov B-A for CN1[C@H]2CC[C@@H]1[C@@H](F)[C@@H](N(c1ccc(-c3cc4ncn(CC(F)(F)F)c(=O)c4cc3O)nn1)C1CC1)C2 (single isomer, unassigned) [Compound 111B]
OUT: 56

IN: Give MDCK-MDR1: % Recov B-A for CN(c1ccc(-c2cc3ncn(CC(F)(F)F)c(=O)c3cc2O)nn1)[C@@H]1C[C@H]2CC(F)(F)[C@@H](C1)N2C (single isomer, unassigned) [Compound 110A]
OUT: 92

IN: Give MDCK-MDR1: % Recov B-A for CN(c1ccc(-c2cnc(-c3cnn(C)c3)nc2O)nn1)[C@H]1C[C@@H]2CC[C@@H](N2)[C@H]1F (racemic)
OUT: 98

IN: Give MDCK-MDR1: % Recov B-A for CN1[C@@H]2CC[C@H]1[C@H](F)[C@H](N(c1ccc(-c3cc4ncn(CC(F)(F)F)c(=O)c4cc3O)nn1)C1CC1)C2 (single isomer, unassigned) [Compound 111A]
OUT: 83

====

Collected MDCK-MDR1: % Recov A-B values appear next to each entry.
- System: MDR1-MDCK cell monolayers
- Protocol text: Blood-brain-barrier (BBB) penetration potential via MDCK-MDR1 permeability assay
- Assay conditions: A-B direction
Express the reported value numerically, then name its unit.

Some solved entries appear below for comparison.
[[record]]
compound = "CN(C)C(=O)c1cc2cc(O)c(-c3ccc(N(C)[C@H]4C[C@@H]5CC[C@@H](N5)[C@H]4F)nn3)cc2o1"
measured_on = "MDR1-MDCK cell monolayers"
measurement_kind = "MDCK-MDR1: % Recov A-B"
value = "88%"

[[record]]
compound = "CN(c1ccc(-c2cc3cnccc3cc2O)nn1)[C@@H]1C[C@H]2CC[C@H](N2)[C@@H]1F (single isomer, unassigned) [Compound 7A]"
measured_on = "MDR1-MDCK cell monolayers"
measurement_kind = "MDCK-MDR1: % Recov A-B"
value = "65%"


IN: Give MDCK-MDR1: % Recov A-B for CN(c1ccc(-c2cc3ncn(C)c(=O)c3cc2O)nn1)[C@@H]1C[C@H]2CC[C@H](N2)[C@@H]1F [Compound 51A]
OUT: 94%

IN: Give MDCK-MDR1: % Recov A-B for CN(c1ccc(-c2ccc(-c3ccccn3)cc2O)nn1)[C@@H]1C[C@H]2CCC[C@H](N2)[C@@H]1F [Compound 23A]
OUT: 64%

IN: Give MDCK-MDR1: % Recov A-B for CN(c1ccc(-c2ccc(C3=CCCC3)cc2O)nn1)[C@@H]1C[C@H]2CC[C@H](N2)[C@@H]1F [Compound 34A]
OUT: 8%

IN: Give MDCK-MDR1: % Recov A-B for Cc1cc(=O)c2cc(-c3ccc(N(C)[C@H]4C[C@@H]5CC[C@@H](N5)[C@H]4F)nn3)c(O)cc2o1 [Compound 50B]
OUT: 80%

IN: Give MDCK-MDR1: % Recov A-B for CN(c1ccc(-c2cc3cnccc3cc2O)nn1)[C@H]1C[C@@H]2CC[C@H]([C@H]1F)N2C [Compound 93B]
OUT: 45%
